Tested on: His-EGF(A)-Fc
Assay: His-EGF(A)-Fc TR-FRET counterscreen
Settings: TR-FRET counterscreen; Table 8D; * = some inhibition at highest concentrations, not sufficient to fit an IC50
Bridge positions count the residues as written; N and C are the ends. Square brackets hold non-standard residues; d marks the D form. Peptide text beside a SMILES is read from it. Aoc = NCCCCCCCC(=O)O
Assign IC50 to each entry below.

Exam item: // query IC50 value for entry CC[C@H](C)[C@@H]1NC(=O)[C@H](CCCNC(=N)N)NC(=O)[C@H](CCC(N)=O)NC(=O)[C@H](C)NC(=O)[C@H](CC(N)=O)NC(=O)[C@H](Cc2c[nH]c3ccccc23)NC(=O)[C@@H]2CCCN2C(=O)[C@H](CC(C)C)NC(=O)[C@H](CCCNC(=N)N)NC(=O)[C@@H](NC(C)=O)CSSC[C@@H](C(N)=O)NC(=O)[C@@H]2CCCN2C(=O)[C@H](CC(C)C)NC(=O)CNC1=O [Compound 74] (Ac-CRLPWNAQRIGLPC-NH2; disulfide 1-14)
Marked response: > 50 µM

Exam item: Now the same for CC[C@H](C)[C@@H]1NC(=O)[C@H](CCCNC(=N)N)NC(=O)[C@H](CCC(N)=O)NC(=O)[C@H](CC(C)C)NC(=O)[C@H](CC(N)=O)NC(=O)[C@H](Cc2c[nH]c3ccccc23)NC(=O)[C@@H]2CCCN2C(=O)[C@@H](CC(C)C)NC(=O)[C@H](CCCNC(=N)N)NC(=O)[C@@H](NC(C)=O)CSSC[C@@H](C(N)=O)NC(=O)[C@@H]2CCCN2C(=O)[C@H](CC(C)C)NC(=O)CNC1=O [Compound 108] (Ac-CR[dL]PWNLQRIGLPC-NH2; disulfide 1-14)
Marked response: > 50 µM

Exam item: Now the same for CC[C@@H](C)[C@H]1NC(=O)[C@H](CCCNC(=N)N)NC(=O)[C@H](CCC(N)=O)NC(=O)[C@H](CC(C)C)NC(=O)[C@H](CC(N)=O)NC(=O)[C@H](Cc2c[nH]c3ccccc23)NC(=O)[C@@H]2CCCN2C(=O)[C@H](CC(C)C)NC(=O)[C@H](CCCNC(=N)N)NC(=O)[C@@H](NC(C)=O)CSSC[C@@H](C(N)=O)NC(=O)[C@@H]2CCCN2C(=O)[C@H](CC(C)C)NC(=O)CNC1=O [Compound 101] (Ac-CRLPWNLQR[dI]GLPC-NH2; disulfide 1-14)
Marked response: > 50 µM

Exam item: Now the same for CC[C@H](C)[C@@H]1NC(=O)[C@H](CCCNC(=N)N)NC(=O)[C@H](CCC(N)=O)NC(=O)[C@H](CC(C)C)NC(=O)[C@H](CC(N)=O)NC(=O)[C@H](Cc2c[nH]c3ccccc23)NC(=O)[C@@H]2CCCN2C(=O)[C@H](CC(C)C)NC(=O)[C@H](CCCNC(=N)N)NC(=O)[C@@H](NC(C)=O)CSSC[C@@H](C(N)=O)NC(=O)[C@@H]2CCCN2C(=O)[C@H](CC(C)C)NC(=O)CNC1=O [Compound 32] (Ac-CRLPWNLQRIGLPC-NH2; disulfide 1-14)
Marked response: > 50 µM

Exam item: Now the same for CC(=O)N[C@H]1CSSC[C@@H](C(N)=O)NC(=O)CCCCCCCNC(=O)[C@H](CCCNC(=N)N)NC(=O)[C@H](CCC(N)=O)NC(=O)[C@H](CC(C)C)NC(=O)[C@H](CC(N)=O)NC(=O)[C@H](Cc2c[nH]c3ccccc23)NC(=O)[C@@H]2CCCN2C(=O)[C@H](CC(C)C)NC(=O)[C@H](CCCNC(=N)N)NC1=O [Compound 86] (Ac-CRLPWNLQR[Aoc]C-NH2; disulfide 1-11)
Marked response: > 50 µM
